target desc: UniProtKB P11229
Sequence (P11229 whole entry): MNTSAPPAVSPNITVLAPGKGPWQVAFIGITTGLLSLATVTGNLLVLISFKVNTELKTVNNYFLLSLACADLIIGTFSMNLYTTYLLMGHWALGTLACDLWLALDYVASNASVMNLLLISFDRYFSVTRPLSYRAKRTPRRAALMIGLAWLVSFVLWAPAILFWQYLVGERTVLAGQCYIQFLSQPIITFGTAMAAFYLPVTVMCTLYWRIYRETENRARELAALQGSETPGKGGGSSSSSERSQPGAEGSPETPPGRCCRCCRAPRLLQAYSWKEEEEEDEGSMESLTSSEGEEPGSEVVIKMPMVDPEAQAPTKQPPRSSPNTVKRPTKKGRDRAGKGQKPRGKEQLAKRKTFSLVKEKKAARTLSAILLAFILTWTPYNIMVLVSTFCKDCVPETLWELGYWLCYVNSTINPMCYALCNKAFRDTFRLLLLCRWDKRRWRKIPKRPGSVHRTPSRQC
method description: Displacement of [3H]NMS from human muscarinic M1 receptor expressed in CHOK1 cells by microplate scintillation counting
measured attribute: IC50 (nM)
Give the value in nM but do not write nM after it.

Example cases with answers are listed next.
# compound structure string, IC50 (nM)
records = [
    ("O=C(O[C@H]1C[N+]2(CCCOc3ccccc3)CCC1CC2)C(O)(c1ccccc1)c1ccccc1.[Br-]", 0.31),
    ("O=C(O[C@H]1C[N+]2(CCCOc3ccccc3)CCC1CC2)C(O)(c1ccsc1)c1ccsc1.[Br-]", 0.23),
    ("O=C(O[C@H]1C[N+]2(CCCOc3ccccc3)CCC1CC2)[C@](O)(c1cccs1)C1CCCC1.[Br-]", 0.15),
]

Now for another entry.
Query block: Quick check: IC50 of `O=C(O[C@H]1C[N+]2(CCc3ccccc3)CCC1CC2)C1(O)c2ccccc2Oc2ccccc21.[Br-]` ?
Result block: 0.29
